Sourced from patent US11786528B2

test: Solubility; format: physicochemical; conditions: water (or specific buffer), thermodynamic from solid, overnight stirring at ambient temperature, LC-UV
valueKind: solubility

Sure, the documented solubility for `COc1ccccc1Cn1cc2c(N)nc(-c3cnccn3)nc2n1` is > 10 µg/mL

Sure, the documented solubility for `COc1cccc(Cn2cc3c(N)nc(-c4cnco4)nc3n2)c1` is > 10 µg/mL

Sure, the documented solubility for `Nc1nc(-c2ccsn2)nc2nn(Cc3ccccc3O)cc12` is > 50 µg/mL

Sure, the documented solubility for `COc1ccc(Cn2cc3c(N)nc(-c4cnccn4)nc3n2)cc1OC` is > 50 µg/mL

###

valueKind: pIC50
Conceptually, pIC50 converts a concentration in mol/L into minus its log10.

pIC50 for human adenosine receptor sub-type A2b (Homo sapiens (Human), UniProt P29275) with input `Cc1cccc(Cn2cc3c(N)nc(-c4ccsn4)nc3n2)c1` equals 5.82

pIC50 for human adenosine receptor sub-type A2b (Homo sapiens (Human), UniProt P29275) with input COc1ccccc1Cn1cc2c(N)nc(-c3ccc(C)o3)nc2n1 [Comparative Example 1, reference compound] equals 5.31
